I'd appreciate it if you could supply activation at 0.1 µM values for the items below.
target_system: α5β2γ2 subtype GABAAR (Homo sapiens, UniProt P18507+P31644)
Construct: expressed in transfected cells
protocol: Positive allosteric modulator activity: potentiation of EC20 GABA current in oocytes
Type: cell-based
assay_context: read-out: GABA α5 Functional Data (potentiation), @ 100 nM, reported as ranges
Method: (B) Positive Allosteric Modulator Activity of Test Compounds on α5β2γ2 Subtype GABAAR On day 1, 1 ng/32 nL of GABAA α5β2γ2 cDNA was injected into one oocyte. Test starts on day 2. The cDNA injected to the oocytes was a mix of alpha, beta and gamma, their ratio is 1:1:10 (by weight) and the total weight of the mixed 3 subunits to be injected in one oocyte was 1 ng in 32 nl volume. The injected oocytes can also be tested on day 3. […]

Below, each entry is followed by its recorded activation at 0.1 µM result.
                               input_smiles                             target_system  measurement
0  COc1ccc2c(c1)-c1nnc(COc3ccc(F)cc3)n1Cc1c(C#N)ncn1-2  α5β2γ2 subtype GABAAR (Homo sapiens, UniProt P18507+P31644)    20 to 50%
1  COc1ccc2c(c1)-n1nncc1Cc1c(C3=N[C@@H](c4ccc(Cl)cc4)CO3)ncn1-2  α5β2γ2 subtype GABAAR (Homo sapiens, UniProt P18507+P31644)     5 to 20%

Okay, here is my list. What is activation at 0.1 µM for each of these?
1. COCc1nnc2n1Cc1c(-c3noc(C(C)C)n3)ncn1-c1ccc(F)cc1-2
2. Cc1ncn2c1Cc1c(C)nnn1-c1ccccc1-2
3. COCc1nnc2n1Cc1c(-c3nc(C(C)C)no3)ncn1-c1ccc(Cl)cc1-2
4. Fc1ccc([C@H]2COC(c3ncn4c3Cc3cnnn3-c3cc(Cl)ccc3-4)=N2)cc1
5. COc1ccc2c(c1)-c1nnc(COc3ccccc3)n1Cc1c(C(=O)OC(C)C)ncn1-2
6. CCOC(=O)c1ncn2c1Cc1c(COc3ccc(F)cc3)nnn1-c1cc(OC)ccc1-2

Given back:
1: > 50%; 2: 5 to 20%; 3: 5 to 20%; 4: 5 to 20%; 5: 20 to 50%; 6: 5 to 20%

Okay, here is my list. What is activation at 0.1 µM for each of these?
1. CCc1nc(-c2ncn3c2Cc2c(C)nnn2-c2cc(F)ccc2-3)no1
2. COc1ccc2c(c1)-n1nncc1Cc1c(C#CCc3ccccc3OC(F)(F)F)ncn1-2
3. COCc1nnc2n1Cc1c(C#Cc3ccccc3C)ncn1-c1ccc(Cl)cc1-2

Given back:
1: 20 to 50%; 2: 5 to 20%; 3: 20 to 50%

----------
I'd appreciate it if you could supply activation at 0.1 µM values for the items below.
target_system: α5β2γ2 subtype GABAAR (Homo sapiens, UniProt P18507+P31644)
Construct: expressed in transfected cells
Sequence (P31644 32-462): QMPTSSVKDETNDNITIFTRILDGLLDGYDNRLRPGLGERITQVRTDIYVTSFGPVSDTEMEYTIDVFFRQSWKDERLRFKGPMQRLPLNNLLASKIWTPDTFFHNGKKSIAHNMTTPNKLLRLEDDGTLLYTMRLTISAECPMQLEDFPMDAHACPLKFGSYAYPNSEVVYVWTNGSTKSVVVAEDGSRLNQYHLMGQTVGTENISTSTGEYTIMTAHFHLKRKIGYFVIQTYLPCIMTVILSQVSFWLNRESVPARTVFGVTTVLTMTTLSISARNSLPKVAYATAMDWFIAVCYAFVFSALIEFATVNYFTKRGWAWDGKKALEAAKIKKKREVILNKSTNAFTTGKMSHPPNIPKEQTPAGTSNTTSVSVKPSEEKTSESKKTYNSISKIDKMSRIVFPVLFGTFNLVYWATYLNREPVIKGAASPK
Sequence (P47870 25-512 partner limits assumed): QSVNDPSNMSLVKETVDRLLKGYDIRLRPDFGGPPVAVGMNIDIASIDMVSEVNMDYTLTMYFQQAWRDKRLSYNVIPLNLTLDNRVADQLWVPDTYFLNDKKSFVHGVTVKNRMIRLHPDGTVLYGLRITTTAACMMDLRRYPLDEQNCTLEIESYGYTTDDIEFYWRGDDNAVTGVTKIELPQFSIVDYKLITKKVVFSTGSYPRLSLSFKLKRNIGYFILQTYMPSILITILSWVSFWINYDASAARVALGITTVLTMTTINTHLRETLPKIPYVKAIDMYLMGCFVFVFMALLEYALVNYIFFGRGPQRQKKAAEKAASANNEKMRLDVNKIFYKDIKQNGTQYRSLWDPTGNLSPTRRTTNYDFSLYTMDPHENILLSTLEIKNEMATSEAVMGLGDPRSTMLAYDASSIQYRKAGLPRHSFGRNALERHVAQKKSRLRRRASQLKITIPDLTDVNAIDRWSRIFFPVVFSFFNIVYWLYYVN
Sequence (P18507 40-467 limits assumed): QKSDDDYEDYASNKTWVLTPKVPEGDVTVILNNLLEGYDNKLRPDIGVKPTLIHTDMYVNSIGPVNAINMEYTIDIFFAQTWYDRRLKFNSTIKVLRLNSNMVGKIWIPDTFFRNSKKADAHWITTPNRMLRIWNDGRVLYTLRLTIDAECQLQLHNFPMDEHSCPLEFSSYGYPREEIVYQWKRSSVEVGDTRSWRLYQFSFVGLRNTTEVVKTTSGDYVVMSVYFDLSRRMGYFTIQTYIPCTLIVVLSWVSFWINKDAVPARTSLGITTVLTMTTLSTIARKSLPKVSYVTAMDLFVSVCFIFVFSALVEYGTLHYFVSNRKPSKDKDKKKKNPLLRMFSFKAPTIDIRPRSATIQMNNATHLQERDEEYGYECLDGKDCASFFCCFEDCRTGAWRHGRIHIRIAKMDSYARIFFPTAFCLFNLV
protocol: Positive allosteric modulator activity: potentiation of EC20 GABA current in oocytes
Format: cell-based
assay_context: read-out: GABA α5 Functional Data (potentiation), @ 100 nM, reported as ranges

Below, each entry is followed by its recorded activation at 0.1 µM result.
                                   compound                             target_system          assay_metric  measurement
0  CC(C)c1coc(-c2ncn3c2Cc2cnnn2-c2cc(Cl)ccc2-3)n1 [Compound 387]  α5β2γ2 subtype GABAAR (Homo sapiens, UniProt P18507+P31644)  activation at 0.1 µM    20 to 50%
1  COc1ccc2c(c1)-c1nnc(COc3ccc(F)cc3)n1Cc1c(-c3noc(C(C)C)n3)ncn1-2 [Compound 172]  α5β2γ2 subtype GABAAR (Homo sapiens, UniProt P18507+P31644)  activation at 0.1 µM        > 50%
2  Cc1ccccc1C#Cc1ncn2c1Cc1cnnn1-c1cc(Cl)ccc1-2 [Compound 396]  α5β2γ2 subtype GABAAR (Homo sapiens, UniProt P18507+P31644)  activation at 0.1 µM     5 to 20%
3  COCc1nnc2n1Cc1c(-c3nc(-c4ccccc4)co3)ncn1-c1ccc(Cl)cc1-2 [Compound 245]  α5β2γ2 subtype GABAAR (Homo sapiens, UniProt P18507+P31644)  activation at 0.1 µM     5 to 20%

Okay, here is my list. What is activation at 0.1 µM for each of these?
1. Clc1ccc2c(c1)-n1nncc1Cc1c(C#Cc3cccnc3)ncn1-2 [Compound 402]
2. CCOC(=O)c1ncn2c1Cc1c(C)nnn1-c1cc(OC)ccc1-2 [Compound 1]
3. COc1ccc2c(c1)-n1nncc1Cc1c(C#Cc3cccnc3)ncn1-2 [Compound 407]
4. Cc1nnn2c1Cc1c(C(=O)OCC(F)(F)F)ncn1-c1ccc(F)cc1-2 [Compound 114]

Given back:
1. 20 to 50%
2. 20 to 50%
3. 5 to 20%
4. > 50%

Okay, here is my list. What is activation at 0.1 µM for each of these?
1. CCOC(=O)c1ncn2c1Cn1c(COc3ccccc3)nnc1-c1cc(OC)ccc1-2 [Compound 55]
2. COc1ccc2c(c1)-n1nnc(COc3ccccc3F)c1Cc1c(-c3noc(C)n3)ncn1-2 [Compound 181]
3. COc1ccc2c(c1)-n1nncc1Cc1c(C#Cc3ccccc3C)ncn1-2 [Compound 405]
4. Cc1nnn2c1Cc1c(C(=O)OC(C)C)ncn1-c1ccccc1-2 [Compound 153]
5. COc1ccc2c(c1)-n1nnc(Cc3ccccc3)c1Cc1c(Br)ncn1-2 [Compound 212]
6. COc1ccc2c(c1)-n1nncc1Cc1c(C#Cc3ccccn3)ncn1-2 [Compound 408]

Given back:
1: 20 to 50%; 2: 20 to 50%; 3: 5 to 20%; 4: 20 to 50%; 5: 20 to 50%; 6: 5 to 20%
